What Kd was measured for each of the following?
molecular target: T1, Recombinant human TfR1, His6-tagged (a.a. 89-760) (human, UniProt P02786 89-760); assay: SPR, TfR1 on chip
T1 construct: range 89-760; captured and coupled on an NTA chip for SPR; also called transferrin receptor 1; CD71
T1 sequence (P02786 89-760 limits assumed): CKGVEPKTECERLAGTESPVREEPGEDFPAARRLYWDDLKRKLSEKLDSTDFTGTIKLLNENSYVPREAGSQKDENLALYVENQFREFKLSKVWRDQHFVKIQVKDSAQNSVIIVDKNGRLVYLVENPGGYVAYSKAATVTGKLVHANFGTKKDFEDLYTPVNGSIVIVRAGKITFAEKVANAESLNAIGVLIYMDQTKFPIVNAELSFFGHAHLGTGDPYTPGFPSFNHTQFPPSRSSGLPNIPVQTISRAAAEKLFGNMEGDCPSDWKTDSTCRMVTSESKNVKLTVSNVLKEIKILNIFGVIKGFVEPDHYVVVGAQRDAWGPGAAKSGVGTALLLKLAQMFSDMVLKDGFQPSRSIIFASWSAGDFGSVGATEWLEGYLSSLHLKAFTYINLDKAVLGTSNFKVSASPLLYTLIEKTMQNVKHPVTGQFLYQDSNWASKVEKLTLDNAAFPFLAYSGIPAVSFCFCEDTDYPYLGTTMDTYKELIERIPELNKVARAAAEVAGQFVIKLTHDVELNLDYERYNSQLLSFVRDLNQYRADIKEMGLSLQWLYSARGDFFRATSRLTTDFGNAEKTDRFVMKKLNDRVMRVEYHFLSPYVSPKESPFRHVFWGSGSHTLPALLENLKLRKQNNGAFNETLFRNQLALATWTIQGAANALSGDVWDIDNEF
Starred links: 1 amine or outer side, 2 acyl side, 3 side chain; linkers in the order of their positions; H or OH if unused. Positions of bridges follow the written chain, without caps; N, C: chain ends. No end group written: not given here. TATB = O=C(C[*:1])N1CN(C(=O)C[*:2])CN(C(=O)C[*:3])C1
Give bare numbers, in nM.

Some solved entries appear below for comparison.
WGKSCPIDAHLGCISYCA (linker 5-13-17 via TATB (inferred)) [BCY17116] ... 1
NWNCPXDAYLGCXSYC (3 Cys on TATB; N-terminal acetyl (Ac); core as printed CP[HyP]DAYLGC[tBuGly]SYC) [BCY17993] ... 9
TYMNCPPDAHLGCISYCA (linker 5-13-17 via TATB (inferred)) [BCY17117] ... 4.2

(Q) Supply Kd value. Item: ESFCSPDAHLGCISYCA (linker 4-12-16 via TATB) [BCY17113]
(A) 308
